test system: Salmonella typhimurium
# key: entry, value: MIC
Your answer is read as µM, so omit the unit and give the number.

smiles_structure	assay_target	MIC, µM
CC[C@H](C)[C@H](N)C(=O)NCC(=O)NCC(=O)N[C@H](C(=O)N[C@H](C(=O)N[C@@H](CO)C(=O)N[C@@H](Cc1ccccc1)C(=O)N[C@@H](Cc1ccccc1)C(=O)N[C@@H](CCCCN)C(=O)N[C@@H](CCCN=C(N)N)C(=O)N[C@@H](CC(C)C)C(=O)N[C@@H](Cc1ccccc1)C(=O)O)[C@@H](C)CC)[C@@H](C)CC	Salmonella typhimurium	8.94
CC(C)C[C@@H]1NC(=O)CNC(=O)[C@H](CO)NC(=O)[C@H](C(C)C)NC(=O)CNC(=O)[C@@H](NC(=O)[C@H](CC(C)C)NC(=O)[C@@H](NC(=O)[C@H](CCCCN)NC(=O)[C@H](CCCCN)NC(=O)CNC(=O)[C@@H](NC(=O)CNC(=O)[C@H](CC(C)C)NC(=O)[C@@H](NC(=O)[C@H](CCCCN)NC(=O)[C@H](CO)NC(=O)[C@H](CC(C)C)NC(=O)[C@H](CC(C)C)NC(=O)CN)C(C)C)C(C)C)C(C)C)CSSC[C@@H](C(=O)O)NC1=O	Salmonella typhimurium	11.1
CC[C@H](C)[C@H](N)C(=O)N[C@@H](CC(C)C)C(=O)N1CCC[C@H]1C(=O)N[C@@H](Cc1c[nH]c2ccccc12)C(=O)N[C@@H](CCCCN)C(=O)N[C@@H](Cc1c[nH]c2ccccc12)C(=O)N[C@@H](C)C(=O)N[C@@H](Cc1c[nH]c2ccccc12)C(=O)N[C@@H](Cc1c[nH]c2ccccc12)C(=O)N[C@@H](C)C(=O)N[C@@H](Cc1c[nH]c2ccccc12)C(=O)N[C@@H](CCCN=C(N)N)C(=O)N[C@@H](CCCN=C(N)N)C(N)=O	Salmonella typhimurium	25

Here is another compound to look at.
Observed MIC, Salmonella typhimurium, CC[C@H](C)[C@H](NC(=O)[C@@H](NC(=O)[C@@H]1CCCN1C(=O)[C@@H](NC(=O)[C@@H]1CCCN1C(=O)[C@H](CCCCN)NC(=O)[C@H](CCCCN)NC(=O)[C@H](CO)NC(=O)CN)C(C)C)[C@@H](C)CC)C(=O)N[C@@H](Cc1ccc(O)cc1)C(=O)N[C@H]1CSSC[C@@H](C(=O)N[C@@H](CCC(N)=O)C(=O)N[C@@H](CCCN=C(N)N)C(=O)N[C@@H](CCSC)C(=O)O)NC(=O)[C@H](CCCCN)NC(=O)CNC(=O)[C@H](CCCN=C(N)N)NC(=O)[C@H](CCCN=C(N)N)NC(=O)[C@H](CC(N)=O)NC1=O : 1.3

* * *

The following compounds have recorded MIC on Escherichia coli ATCC 25922.
Provide only the numeric value, understood in µM.

Recorded MIC, per entry:
smiles_structure	unit	MIC
CC[C@H](C)[C@H](NC(=O)[C@H](CCCN=C(N)N)NC(=O)[C@H](CCC(N)=O)NC(=O)[C@@H](NC(=O)[C@@H](NC(=O)[C@H](CCCN=C(N)N)NC(=O)[C@H](CCCCN)NC(=O)[C@@H](N)Cc1ccccc1)[C@@H](C)CC)C(C)C)C(=O)N[C@@H](CCCCN)C(=O)N[C@@H](CC(=O)O)C(=O)NCC(=O)N[C@@H](CC(C)C)C(=O)N[C@@H](CCCN=C(N)N)C(=O)O	µM	20
CC(C)C[C@H](NC(=O)[C@H](C)NC(=O)[C@@H](N)CCCCN)C(=O)N[C@@H](Cc1c[nH]c2ccccc12)C(=O)N[C@@H](CCCCN)C(=O)N[C@H](C(=O)N[C@@H](CC(C)C)C(=O)N[C@@H](CC(C)C)C(=O)N[C@@H](CCCCN)C(=O)N[C@@H](CCCCN)C(=O)N[C@H](C(=O)N[C@@H](CC(C)C)C(=O)N[C@@H](CCCCN)C(=O)N[C@@H](C)C(N)=O)C(C)C)[C@@H](C)O	µM	3
CC[C@H](C)[C@@H]1NC(=O)[C@H](CO)NC(=O)[C@H](CCCCN)NC(=O)[C@H]([C@@H](C)O)NC(=O)[C@H](Cc2c[nH]c3ccccc23)NC(=O)[C@@H](NC(=O)CNC(=O)[C@H](CCCN=C(N)N)NC(=O)[C@H](CC(C)C)NC(=O)[C@H](C)NC(=O)[C@H](C)N)CSSC[C@@H](C(=O)N2CCC[C@H]2C(=O)NCC(=O)N[C@@H](CCCCN)C(=O)N[C@@H](CCCN=C(N)N)C(=O)O)NC(=O)[C@@H]2CCCN2C(=O)[C@H](CCCCN)NC(=O)[C@@H]2CCCN2C(=O)[C@@H]2CCCN2C1=O	µM	46.2
CC(C)C[C@H](NC(=O)[C@H](Cc1cnc[nH]1)NC(=O)[C@H](CCCCN)NC(=O)[C@H](CC(C)C)NC(=O)[C@H](CC(C)C)NC(=O)[C@H](Cc1cnc[nH]1)NC(=O)[C@H](CCCCN)NC(=O)[C@H](CC(C)C)NC(=O)[C@H](CC(C)C)NC(=O)[C@H](Cc1cnc[nH]1)NC(=O)[C@H](CCCCN)NC(=O)[C@H](CC(C)C)NC(=O)[C@H](C)NC(=O)[C@H](CC(=O)O)NC(=O)[C@@H](N)CC(=O)O)C(=O)O	µM	100
CSCC[C@H](NC(=O)[C@H](Cc1ccccc1)NC(=O)CNC(=O)[C@H](Cc1cnc[nH]1)NC(=O)[C@H](CC(C)C)NC(=O)[C@H](CO)NC(=O)CN)C(=O)N[C@@H](Cc1ccc(O)cc1)C(=O)N[C@@H](CCCCN)C(=O)N[C@@H](Cc1ccc(O)cc1)C(=O)N[C@@H](CC(C)C)C(=O)N[C@@H](CCCCN)C(=O)N[C@H](C(=O)N[C@@H](CC(C)C)C(=O)N[C@H](C(=O)N[C@@H](CC(C)C)C(=O)N[C@@H](CCCN=C(N)N)C(=O)N[C@@H](CC(C)C)C(=O)N[C@@H](Cc1ccc(O)cc1)C(N)=O)C(C)C)[C@@H](C)O	µM	13.3

Query CC[C@H](C)[C@H](NC(=O)[C@H](Cc1c[nH]c2ccccc12)NC(=O)[C@H](CCCCN)NC(=O)[C@H](CC(C)C)NC(=O)[C@@H](NC(=O)[C@H](CCCCN)NC(=O)CNC(=O)[C@@H](NC(=O)[C@H](CCCCN)NC(=O)[C@H](CCCCN)NC(=O)[C@H](CC(C)C)NC(=O)[C@H](CCCN=C(N)N)NC(=O)[C@H](CCCCN)NC(=O)[C@H](CCCN=C(N)N)NC(=O)[C@@H](NC(=O)[C@H](CCCCN)NC(=O)[C@H](CCCCN)NC(=O)[C@@H](N)CCCN=C(N)N)[C@@H](C)O)[C@@H](C)CC)C(C)C)C(N)=O on Escherichia coli ATCC 25922; MIC returned: 2

Form field, MIC with Escherichia coli ATCC 25922, item CC[C@H](C)[C@H](NC(=O)[C@H](C)NC(=O)[C@H](CO)NC(=O)[C@@H](NC(=O)[C@H](C)NC(=O)[C@H](CC(N)=O)NC(=O)[C@@H](NC(=O)[C@H](C)NC(=O)[C@H](Cc1cnc[nH]1)NC(=O)[C@@H]1CCCN1C(=O)[C@@H](NC(=O)[C@H](CC(C)C)NC(=O)[C@H](CO)NC(=O)[C@H](CC(C)C)NC(=O)[C@@H](N)Cc1ccccc1)[C@@H](C)CC)[C@@H](C)CC)C(C)C)C(=O)N[C@@H](C)C(=O)N[C@@H](CCCCN)C(=O)N[C@@H](Cc1cnc[nH]1)C(=O)N[C@@H](CC(N)=O)C(N)=O : 7.9

Entry CSCC[C@H](NC(=O)[C@H](CCCCN)NC(=O)[C@H](CCCCN)NC(=O)[C@H](CC(N)=O)NC(=O)[C@H](CCCN=C(N)N)NC(=O)[C@H](CS)NC(=O)[C@H](CCCCN)NC(=O)[C@@H](N)CCCCN)C(=O)N[C@@H](CCC(=O)O)C(=O)N[C@H](C(=O)N[C@@H](CO)C(=O)N[C@@H](CCCN=C(N)N)C(N)=O)C(C)C ; assay system Escherichia coli ATCC 25922; MIC recorded at 26.5
